Each item that follows carries a reported normalized growth.
testSummary: chemical genetic growth profiling, strain panel (AID 1159580);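 note: tested at 20 µM; growth read once vehicle control cultures reached saturation at 30 °C; 1 = growth at the plate median or of vehicle wells; lower values mean less growth of the strain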
experimentalSetup: S. cerevisiae deletion strains, growth OD, locus YDR335W, strain msn5, active compounds read low
About 2,000 (36%) of roughly 5,500 compounds were called active. Roughly 18% stayed inconclusive and do not appear here. The list shows a part of the results.
endpointName: normalized growth

molecule: CC(=O)O[C@H]1C(=O)[C@@]2(C)C([C@H](OC(=O)c3ccccc3)[C@]3(O)C[C@H](OC(=O)[C@H](O)[C@@H](NC(=O)c4ccccc4)c4ccccc4)C(C)=C1C3(C)C)[C@]1(OC(C)=O)CO[C@@H]1C[C@@H]2O (some centres undefined)
measuredNumber: 1

molecule: Cc1cc(OC(=O)N2CCCCC2)c(C(C)C)cc1[N+](C)(C)C
measuredNumber: 1.01

molecule: CNc1ccccc1C(=O)N1CCc2c([nH]c3ccccc23)C1=O
measuredNumber: 0.996

molecule: CC(=O)O[C@H]1C(=O)[C@@]2(C)C([C@H](OC(=O)c3ccccc3)[C@]3(O)C[C@H](O)C(C)=C1C3(C)C)[C@]1(OC(C)=O)CO[C@@H]1C[C@@H]2O (some centres undefined)
measuredNumber: 0.993

molecule: C=CCc1ccc2c(c1)OCO2
measuredNumber: 1.02

molecule: OCC(O)Cc1ccc2c(c1)OCO2 (centres undefined)
measuredNumber: 0.996

molecule: Cc1c(N(C)C)c(=O)n(-c2ccccc2)n1C
measuredNumber: 0.993

molecule: OC(CCN1CCCCC1)(c1ccccc1)c1ccccc1
measuredNumber: 0.986

molecule: O=[N+]([O-])O[C@H]1CO[C@H]2[C@@H]1OC[C@H]2O[N+](=O)[O-]
measuredNumber: 0.995
